# TARGET UNDER TEST: Torsin-1A (Homo sapiens)
# METHOD: torsin A mutant lysate binding on microarrays – cell lysate, small-molecule microarray, COS7 lysate, 635/667 nm fluorescence, primary screen (AID 1150);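 also: score pools 667 nm emission and signal to noise measuring lysate protein binding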
# TEST CONTEXT: COS7 hTOR1A mutant lysate, 635 nm fluorescence, higher = more signal
# if value of composite z-score reaches 0.6, tag t; if it stays below, tag f

stdin: hey, is composite z-score for this one >= 0.6? NC(=O)[C@@H]1[C@H]2C(=O)O[C@H](c3ccccc3)[C@H](c3ccccc3)N2[C@H](c2ccccc2OCCO)[C@@]12C(=O)Nc1ccc(C#CCCO)cc12
stdout: f

stdin: hey, is composite z-score for this one >= 0.6? COC(=O)[C@@]1(Cc2ccc(OC)cc2)[C@H]2c3cc(C(=O)N4CCCC4)n(CCF)c3C[C@H]2CN1C(=O)c1ccccc1
stdout: t

stdin: hey, is composite z-score for this one >= 0.6? COCCOC(=O)N1C(=O)[C@@]2(c3cc(C#CCCO)ccc31)[C@H](C(=O)N1CCc3cc(OC)c(OC)cc3C1)[C@H]1C(=O)O[C@H](c3ccccc3)[C@H](c3ccccc3)N1[C@@H]2c1ccc(OCCO)cc1
stdout: t

stdin: hey, is composite z-score for this one >= 0.6? Cc1ccc(N2C(=O)c3ccccc3[C@](C)(C(=O)NC(C)C)[C@@H]2c2ccc(CO)cc2)nc1
stdout: t

stdin: hey, is composite z-score for this one >= 0.6? COCCOC(=O)N1C(=O)[C@@]2(c3cc(C#CC4(O)CCCCCC4)ccc31)[C@H](C(=O)N1CCN(c3ncccn3)CC1)[C@H]1C(=O)O[C@H](c3ccccc3)[C@H](c3ccccc3)N1[C@@H]2c1ccc(O)cc1
stdout: f

stdin: hey, is composite z-score for this one >= 0.6? CC1C=C(CCCO)C=C(C(=O)OCCS(C)(=O)=O)C(C(=O)OCCS(C)(=O)=O)=CN1Cc1cccc(OC(F)(F)F)c1 (centres undefined)
stdout: t

stdin: hey, is composite z-score for this one >= 0.6? COC(=O)C(CC#Cc1ccc2c(c1)[C@]1(C(=O)N2)[C@H](C(=O)N2CCc3cc(OC)c(OC)cc3C2)[C@H]2C(=O)O[C@H](c3ccccc3)[C@H](c3ccccc3)N2[C@@H]1c1ccc(O)cc1)C(=O)OC
stdout: t

stdin: hey, is composite z-score for this one >= 0.6? O=C(N1CCOCC1)[C@@]1(CCS(=O)(=O)c2ccccc2)COC(c2ccc(OCCCO)cc2)=N1
stdout: t

stdin: hey, is composite z-score for this one >= 0.6? CC(C)(C)OC(=O)CC[C@]1(C(=O)O)COC(c2ccc(OCCCO)cc2)=N1
stdout: t

stdin: hey, is composite z-score for this one >= 0.6? COC(=O)[C@@]1(Cc2ccc(F)cc2)[C@H]2c3cc(C(=O)N(C)C)n(CCSCCO)c3C[C@H]2CN1C(=O)c1ccccc1
stdout: f

stdin: hey, is composite z-score for this one >= 0.6? C[N+](C)(C)CCCCCCNC(=O)[C@H]1C[C@H]2C(=O)N3CCC[C@H]3C(=O)N2[C@H]1c1cccc(OCCO)c1
stdout: t

stdin: hey, is composite z-score for this one >= 0.6? COc1ccc([Si](C)(C)[C@H]2[C@H](CCO)O[C@@]3(C(=O)N(Cc4cccc(N5CCOC5=O)c4)c4ccccc43)[C@@H]2C)cc1
stdout: f

stdin: hey, is composite z-score for this one >= 0.6? CC(C)C[C@@H]1NC(=O)[C@@]23C(=O)N[C@@H](Cc4ccccc4)C2[C@H](C)[C@@]2(C)O[C@H]2C3/C=C/C/C=C\CNC(=O)[C@@H]2CCCN2C1=O (some centres undefined)
stdout: f

stdin: hey, is composite z-score for this one >= 0.6? CCCC=C(CCC)[C@@H](NS(=O)(=O)CC)c1ccccc1
stdout: f

* * *

For each entry below, report its composite z-score value.
# METHOD: probe aLefty1 binding on compound microarray – biochemical, small-molecule microarray, 635/667 nm fluorescence, primary screen (AID 1153);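 also: score merges spot fluorescence with signal-to-noise ratio from the scanned slide images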
# TEST CONTEXT: higher = more signal
Just the number, please, no unit attached.

stdin: // query composite z-score value for entry COCCCNC(=O)[C@@]1(Cc2ccccc2I)c2ccccc2C(=O)N(Cc2ccccc2Cl)[C@H]1c1ccc(CO)cc1
stdout: -0.0346

stdin: // query composite z-score value for entry CN(C)C(=O)[C@@]1(CCC(=O)OC(C)(C)C)COC(c2ccc(OCCCO)cc2)=N1
stdout: 0.3

stdin: // query composite z-score value for entry O=C1O[C@@H](c2ccccc2)[C@@H](c2ccccc2)N2[C@@H](c3ccc(O)cc3)[C@]3(C(=O)Nc4ccc(C#CC5=CCCCC5)cc43)[C@@H](C(=O)Nc3nc4ccccc4s3)[C@H]12
stdout: 1.53

stdin: // query composite z-score value for entry C=CC[C@]1(C(=O)N(C)C)N=C(c2ccc(OCCCO)cc2)O[C@H]1c1ccccc1
stdout: 0.325

stdin: // query composite z-score value for entry Cc1cc(C)c(C(O)C2C=CC3C(=O)N(c4ccccc4)C(=O)C3N2Nc2ccccc2)c(C)c1 (stereo not drawn)
stdout: 0.157

stdin: // query composite z-score value for entry CCCNC(=O)[C@@]1(Sc2ccc(C)cc2)CC(=O)N(Cc2ccccc2)[C@@H]1c1ccc(CO)cc1I
stdout: -0.0573

stdin: // query composite z-score value for entry Cc1cc(C)c(C(O)C2C=CC3C(=O)N(c4ccccc4)C(=O)C3N2Nc2ccc([N+](=O)[O-])cc2)c(C)c1 (stereo not drawn)
stdout: 0.703

stdin: // query composite z-score value for entry C=CCC(OC(C)=O)[C@@H]1[C@@H](N(Cc2cccc3ccccc23)C(=O)Cc2ccc(F)cc2)c2cc(OCCCO)ccc2N1C(=O)Cc1ccc(OC)cc1 (stereo partly drawn)
stdout: 0.0789

* * *

# METHOD: JC-1 mitochondrial signal, unstimulated adipocytes – cell-based, JC-1 fluorescence, 3T3-L1 adipocytes, 24 h, 100 nL compound, profiling panel (AID 1168); also: test concentration not given here
# TEST CONTEXT: JC-1 mitochondrial fluorescence, higher = more signal, called active from +8 up or from −8 down
For each entry below, report its z-score value.
Just the number, please, no unit attached.

stdin: // query z-score value for entry [N-]=[N+]=NCc1ccccc1C[C@]1(C(=O)NCCN2CCOCC2)COC(c2ccc(OCCCO)cc2)=N1
stdout: 0.498

stdin: // query z-score value for entry CO[C@H]1O[C@H](CO)[C@@H](OC(=O)Nc2cccc(F)c2)[C@H](OC(=O)Nc2ccc3c(c2)OCO3)[C@H]1OC(=O)Nc1ccc2c(c1)OCO2
stdout: 0.712

stdin: // query z-score value for entry C[C@]12C(=O)N(CCCO)[C@@H]3C(=O)N(c4ccc(Cl)cc4)CC=CC31O[C@@H]1/C=C\CCCOC(=O)C12 (some centres not stated)
stdout: -1.25

stdin: // query z-score value for entry NC(=O)NCC#Cc1ccc2c(c1)[C@]1(C(=O)N2)[C@H](c2ccc(O)cc2)N2[C@H](c3ccccc3)[C@H](c3ccccc3)OC(=O)[C@H]2[C@@H]1C(=O)NC[C@H](O)c1ccccc1
stdout: -0.0491

stdin: // query z-score value for entry COCCCNC(=O)[C@@]1(Cc2ccccc2)COC(c2ccc(OCCCO)cc2)=N1
stdout: 0.154

stdin: // query z-score value for entry C[N+](C)(C)CCCC[C@@H]1NC(=O)[C@H]2C[C@@H](C(=O)NCCCCCCN)[C@@H](c3cccc(OCCO)c3)N2C1=O
stdout: -0.547

stdin: // query z-score value for entry C=CCNC(=O)[C@H]1[C@@H]2C(=O)O[C@@H](c3ccccc3)[C@@H](c3ccccc3)N2[C@@H](c2ccc(OCCO)cc2)[C@]12C(=O)N(C(=O)OCCOC)c1ccc(C#CC3=CCCCC3)cc12
stdout: 2.06

* * *

# METHOD: changes in parasitized red cell lysis, either direction – P. falciparum Indochina, OD700, 3 h, PSAC antagonist project, primary screen (AID 1156)
# TEST CONTEXT: P. falciparum-infected erythrocytes, osmotic lysis, higher = more signal, called active from +8 up or from −8 down
Activity calls are given as the source filed them.
For each entry below, report its z-score value.

stdin: // query z-score value for entry CC(C)[Si](C#C[Si](C(C)C)(C(C)C)C(C)C)(O[C@H](C)c1cn(Cc2cccc(Cl)c2)nn1)C(C)C
stdout: -0.125 (inactive)

stdin: // query z-score value for entry Cc1ccc(S[C@]2(C(=O)NCCN3CCOCC3)CC(=O)N(C3Cc4ccccc4C3)[C@@H]2c2ccc(CO)cc2)cc1
stdout: 0.62 (inactive)

stdin: // query z-score value for entry CCC[C@@H]1C[C@@]1(CCC)[C@@H](NC(=O)c1ccco1)c1ccc(Cl)cc1
stdout: 0.425 (inactive)

stdin: // query z-score value for entry CCCCC(=C=CC[C@H](O)c1ccccc1OCCO)C[C@H](O)c1ccccn1
stdout: 2.3 (inactive)

* * *

For each entry below, report its composite z-score value.
# METHOD: probe aCHRDL2 binding to arrayed compounds – biochemical, biotinylated probe, 635/667 nm fluorescence, primary screen (AID 1100)
# TEST CONTEXT: small-molecule microarray, higher = more signal
Just the number, please, no unit attached.

stdin: // query composite z-score value for entry CC(C)(C)OC(=O)CC[C@@]1(C(=O)N2CCCCC2)N=C(c2ccc(OCCCO)cc2)O[C@@H]1c1ccccc1CN=[N+]=[N-]
stdout: 0.881

stdin: // query composite z-score value for entry O=C(C=C(CC(O)c1cccc(Cl)c1)OCCF)OCCF (configuration not stated)
stdout: 0.913

stdin: // query composite z-score value for entry COCCOC(=O)N1C(=O)[C@@]2(c3cc(C#Cc4ccc(OC)cc4)ccc31)[C@H](C(=O)N1CCc3cc(OC)c(OC)cc3C1)[C@H]1C(=O)O[C@H](c3ccccc3)[C@H](c3ccccc3)N1[C@@H]2c1ccc(O)cc1
stdout: -0.107

stdin: // query composite z-score value for entry CC(C)C(CO)N1C(=O)[C@@H]2[C@H]3C(=O)OCC=C[C@H]3OC23C=CCN(Cn2nnc4ccccc42)C(=O)[C@@H]13 (some centres not stated)
stdout: 0.465

stdin: // query composite z-score value for entry O=C1N(CCS(=O)(=O)c2ccccc2)c2ccccc2[C@H]2OC(c3ccc(OCCCO)cc3)=N[C@@]12CCS(=O)(=O)c1ccccc1
stdout: 1.16

stdin: // query composite z-score value for entry CC(C)CN1C(=O)[C@@]2(Cc3ccccc31)c1ccccc1C(=O)N(Cc1ccccc1)[C@H]2c1ccc(CO)cc1
stdout: 0.514

stdin: // query composite z-score value for entry O=C1c2ccccc2[C@](Cc2ccccc2I)(C(=O)NCC(F)(F)F)[C@H](c2ccc(CO)cc2)N1Cc1ccccc1
stdout: 0.296
